The reported numbers originate from PubChem BioAssay.

Biological target: L-lactate dehydrogenase (Plasmodium falciparum (isolate CDC / Honduras)) (UniProt Q27743)
Sequence (Q27743 whole entry, looked up): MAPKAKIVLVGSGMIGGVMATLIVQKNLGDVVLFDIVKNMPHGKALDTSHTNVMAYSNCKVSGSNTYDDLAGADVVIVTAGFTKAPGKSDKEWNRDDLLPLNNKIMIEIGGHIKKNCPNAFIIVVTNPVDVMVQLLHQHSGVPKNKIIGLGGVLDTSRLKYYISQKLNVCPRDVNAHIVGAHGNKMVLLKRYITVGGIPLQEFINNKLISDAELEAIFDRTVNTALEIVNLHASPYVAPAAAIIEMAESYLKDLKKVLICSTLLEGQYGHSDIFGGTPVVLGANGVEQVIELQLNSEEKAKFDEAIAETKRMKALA
Experiment: PfLDH activity inhibition – cell lysate, 3D7 strain, counter-screen for P. falciparum growth inhibition project (AID 2304);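 note: 0% = vehicle and 100% = reference inhibitor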
Conditions: P. falciparum 3D7 crude extract, LDH APAD/NBT absorbance; at 2 µM; hits give high values

{"structure": "C#CCNCc1ccc(-c2cccc(-c3nc4c(C)cccc4[nH]3)c2)cc1", "inhibition [%]": 2}
{"structure": "Cc1c(CNCCCNc2nc3ccccc3[nH]2)[nH]c2cc(Cl)cc(Cl)c12", "inhibition [%]": -6}
{"structure": "CCOc1cc2ncnc(Nc3ccc(OCc4ccccc4Br)c(OC)c3)c2cc1OCC", "inhibition [%]": 1}
{"structure": "COc1cc(C(=O)NCCCN2CCN(c3cccc(Cl)c3)CC2)ccc1-c1nc2cc(Cl)c(F)cc2[nH]1", "inhibition [%]": 0}
{"structure": "NC(N)=NN=CC(=O)Nc1cc([N+](=O)[O-])cc([N+](=O)[O-])c1", "inhibition [%]": -4}
